Biological target: 5-hydroxytryptamine receptor 7 (Rattus norvegicus, UniProt P32305)
Sequence (P32305 whole entry): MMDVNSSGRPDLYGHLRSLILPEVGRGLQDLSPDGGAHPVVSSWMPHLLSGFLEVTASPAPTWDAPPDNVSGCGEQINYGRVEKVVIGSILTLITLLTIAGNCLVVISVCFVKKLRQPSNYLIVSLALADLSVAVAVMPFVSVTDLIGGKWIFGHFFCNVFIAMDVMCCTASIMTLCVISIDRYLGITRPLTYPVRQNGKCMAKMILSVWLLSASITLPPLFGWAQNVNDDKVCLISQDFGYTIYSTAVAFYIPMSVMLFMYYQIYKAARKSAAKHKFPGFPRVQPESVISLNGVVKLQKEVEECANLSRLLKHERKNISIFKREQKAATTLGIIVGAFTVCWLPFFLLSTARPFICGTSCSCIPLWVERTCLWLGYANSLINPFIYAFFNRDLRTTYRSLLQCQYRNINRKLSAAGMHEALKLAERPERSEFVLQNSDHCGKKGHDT
The reader will find reported Ki values listed item by item below.
Recorded metric: Ki (nM)

| Structure smiles string | Experimental value |
| --- | --- |
| CN1CCc2ccc3cnc4cccc5c4c3c2[C@H]1C5 | 27.2 |
| CN1CCc2ccc3c(=O)[nH]c4cccc5c4c3c2[C@H]1C5 | 54.5 |
| CN1CCc2ccc3[nH]c(=O)c4cccc5c4c3c2[C@H]1C5 | 341 |
| CN1CCc2ccc3ncc4cccc5c4c3c2[C@H]1C5 | 81 |

====

Target: 5-hydroxytryptamine receptor 1A (Rattus norvegicus, UniProt P19327)
Sequence (P19327 whole entry): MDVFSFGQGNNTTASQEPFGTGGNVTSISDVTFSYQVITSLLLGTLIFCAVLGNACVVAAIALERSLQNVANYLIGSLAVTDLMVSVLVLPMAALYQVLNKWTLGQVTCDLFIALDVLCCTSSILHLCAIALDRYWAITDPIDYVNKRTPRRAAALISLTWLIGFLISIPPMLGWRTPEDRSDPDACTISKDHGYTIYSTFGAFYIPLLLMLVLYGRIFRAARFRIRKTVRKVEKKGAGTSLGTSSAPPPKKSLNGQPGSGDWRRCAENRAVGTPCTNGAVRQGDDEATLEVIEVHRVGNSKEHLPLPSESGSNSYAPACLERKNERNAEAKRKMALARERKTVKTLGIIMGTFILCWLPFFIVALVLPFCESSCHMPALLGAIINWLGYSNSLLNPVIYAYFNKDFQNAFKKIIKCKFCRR
pKi: −log10 of the molar value.
List of pKi values.

| Structure smiles string | pKi |
| --- | --- |
| CN1CCc2ccc3c(=O)oc4cccc5c4c3c2[C@H]1C5 | 5.94 |
| CN1CCc2ccc3oc(=O)c4cccc5c4c3c2[C@H]1C5 | 5.69 |

====

Molecular target: UniProt P08908
Sequence (P08908 whole entry): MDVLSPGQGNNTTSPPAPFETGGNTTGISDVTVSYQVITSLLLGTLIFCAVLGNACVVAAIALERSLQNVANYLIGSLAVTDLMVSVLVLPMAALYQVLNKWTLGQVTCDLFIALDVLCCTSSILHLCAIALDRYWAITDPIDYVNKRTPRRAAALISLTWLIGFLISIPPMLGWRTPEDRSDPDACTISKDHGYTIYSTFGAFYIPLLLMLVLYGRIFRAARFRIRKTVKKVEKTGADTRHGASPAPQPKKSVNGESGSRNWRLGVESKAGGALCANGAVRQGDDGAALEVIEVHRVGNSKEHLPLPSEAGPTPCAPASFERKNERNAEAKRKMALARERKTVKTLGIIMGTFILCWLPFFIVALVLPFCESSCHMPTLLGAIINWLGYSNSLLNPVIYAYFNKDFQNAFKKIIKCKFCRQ
Listing of entries alongside the reported Ki.

| Structure smiles string | Target entity | Unit abbrev | Ki |
| --- | --- | --- | --- |
| CN1CCc2ccc3c(=O)[nH]c4cccc5c4c3c2[C@H]1C5 | UniProt P08908 | nM | 178 |
| CN1CCc2ccc3ncc4cccc5c4c3c2[C@H]1C5 | UniProt P08908 | nM | 33.9 |
| CN1CCc2ccc3[nH]c(=O)c4cccc5c4c3c2[C@H]1C5 | UniProt P08908 | nM | 373 |
| CN1CCc2ccc3cnc4cccc5c4c3c2[C@H]1C5 | UniProt P08908 | nM | 62.3 |
